assay: In vitro metabolic stability in rat liver microsomes; format: in vitro ADME; details: rat, liver microsomes, read-out: CLint
Observable: microsomal CLint at 1 μM (µL/min/mg)

{"columns": ["Compound", "Observable", "Result Value"],
 "data": [
  ["CCN1CCN(c2ccc(Nc3cc(N(C)C(=O)Nc4c(Cl)c(OC)cc(OC)c4Cl)ncn3)cc2)CC1 [Compound 2]", "microsomal CLint at 1 μM", 90.3],
  ["CC[N+]1([O-])CCN(c2ccc(Nc3cc(N(C)C(=O)Nc4c(Cl)c(OC)cc(OC)c4Cl)ncn3)cc2)CC1 [Compound 1]", "microsomal CLint at 1 μM", 29.6]
]}
